Below, each entry is listed alongside its reported Emax.
- assayed.system: rat metabotropic glutamate receptor 5 (mGluR5) (Rattus norvegicus, UniProt P31424)
- Construct: expressed in transfected cells; host or cells: HEK 293
- Sequence (P31424 21-1171 isoform P31424-2 limits assumed): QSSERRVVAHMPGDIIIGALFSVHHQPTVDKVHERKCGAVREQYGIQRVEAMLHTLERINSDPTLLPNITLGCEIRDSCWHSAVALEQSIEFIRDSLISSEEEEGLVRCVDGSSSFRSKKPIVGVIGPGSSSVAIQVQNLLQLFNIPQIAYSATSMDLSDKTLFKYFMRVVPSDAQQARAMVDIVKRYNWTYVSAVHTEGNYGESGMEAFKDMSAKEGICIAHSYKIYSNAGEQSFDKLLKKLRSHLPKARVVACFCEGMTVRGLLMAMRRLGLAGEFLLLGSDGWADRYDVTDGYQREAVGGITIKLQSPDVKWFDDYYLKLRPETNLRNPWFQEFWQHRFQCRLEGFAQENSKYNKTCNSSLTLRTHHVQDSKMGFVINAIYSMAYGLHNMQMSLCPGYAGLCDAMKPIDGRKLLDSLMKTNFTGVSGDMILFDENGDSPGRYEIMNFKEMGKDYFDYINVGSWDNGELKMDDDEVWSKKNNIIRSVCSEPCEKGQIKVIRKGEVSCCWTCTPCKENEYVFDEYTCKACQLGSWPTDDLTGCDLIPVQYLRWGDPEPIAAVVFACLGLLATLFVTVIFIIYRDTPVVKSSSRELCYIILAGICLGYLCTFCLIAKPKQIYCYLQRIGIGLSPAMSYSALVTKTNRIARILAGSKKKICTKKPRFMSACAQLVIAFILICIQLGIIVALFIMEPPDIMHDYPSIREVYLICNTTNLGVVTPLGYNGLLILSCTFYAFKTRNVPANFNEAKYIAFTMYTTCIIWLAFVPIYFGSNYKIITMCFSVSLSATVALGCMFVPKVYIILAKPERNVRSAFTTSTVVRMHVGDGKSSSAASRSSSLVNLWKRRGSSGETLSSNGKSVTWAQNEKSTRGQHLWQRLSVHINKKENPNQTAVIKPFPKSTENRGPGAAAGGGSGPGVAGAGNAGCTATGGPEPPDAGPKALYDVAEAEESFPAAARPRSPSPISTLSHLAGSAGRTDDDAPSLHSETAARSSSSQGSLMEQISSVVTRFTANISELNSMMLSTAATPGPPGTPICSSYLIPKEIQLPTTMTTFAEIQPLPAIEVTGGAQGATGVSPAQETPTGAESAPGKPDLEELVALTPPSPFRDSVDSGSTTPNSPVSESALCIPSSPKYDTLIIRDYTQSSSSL
- procedure.text: Calcium mobilization assay (FLIPR) for negative or positive allosteric activity, HEK 293 cells
- Assay type: cell-based
- measurement.parameters: HEK293, negative allosteric modulation, inhibition of EC80 glutamate response; read-out: FLIPR maximum inhibition

[
  {
    "compound": "Cc1cccc(C(=O)NC23CC4CC(C2)CC(NC(=O)c2cccc(NCCCO)n2)(C4)C3)n1",
    "Emax": "63 to 99%"
  },
  {
    "compound": "Cn1nc(C(=O)NC23CC4CC(CC(NC(=O)c5ccccn5)(C4)C2)C3)cc1-c1ccco1",
    "Emax": "90 to 99%"
  },
  {
    "compound": "Cc1cccc(C(=O)NC23CC4CC(C2)CC(NC(=O)c2cccc(N5CCC[C@H]5C(N)=O)n2)(C4)C3)n1",
    "Emax": "63 to 99%"
  },
  {
    "compound": "Cn1ccc(C(=O)NC23CC4CC(C2)CC(NC(=O)c2ccn(C)n2)(C4)C3)n1",
    "Emax": "63 to 99%"
  },
  {
    "compound": "Cn1ccc(C(=O)NC23CC4CC(C2)CC(NC(=O)c2nccs2)(C4)C3)n1",
    "Emax": "63 to 99%"
  },
  {
    "compound": "COCCNc1cccc(C(=O)NC23CC4CC(CC(NC(=O)c5ccccn5)(C4)C2)C3)n1",
    "Emax": "63 to 99%"
  },
  {
    "compound": "Cc1cncc(C(=O)NC23CC4CC(CC(NC(=O)c5cc(F)cc(Cl)c5)(C4)C2)C3)n1",
    "Emax": "70 to 99%"
  },
  {
    "compound": "O=C(NC12CC3CC(C1)CC(NC(=O)c1cccc(N4CCC[C@H]4CO)n1)(C3)C2)c1ccccn1",
    "Emax": "63 to 99%"
  },
  {
    "compound": "CN(C)CCNc1cccc(C(=O)NC23CC4CC(CC(NC(=O)c5cccc(F)c5)(C4)C2)C3)n1",
    "Emax": "63 to 99%"
  },
  {
    "compound": "CNC(=O)c1cccc(C(=O)NC23CC4CC(CC(NC(=O)c5ccccn5)(C4)C2)C3)n1",
    "Emax": "63 to 99%"
  },
  {
    "compound": "Cc1cccc(C(=O)NC23CC4CC(C2)CC(NC(=O)c2coc(C)n2)(C4)C3)n1",
    "Emax": "63 to 99%"
  },
  {
    "compound": "Cc1cccc(C(=O)NC23CC4CC(C2)CC(NC(=O)c2cccc(N5CCC(O)C5)n2)(C4)C3)n1 (stereo not shown)",
    "Emax": "63 to 99%"
  },
  {
    "compound": "Cc1ccn2cc(C(=O)NC34CC5CC(CC(NC(=O)c6cccc(F)c6)(C5)C3)C4)nc2c1",
    "Emax": "63 to 99%"
  },
  {
    "compound": "O=C(NC12CC3CC(C1)CC(NC(=O)c1nccc(C(F)(F)F)n1)(C3)C2)c1ccncn1",
    "Emax": "63 to 99%"
  },
  {
    "compound": "CN(C)CCNc1cccc(C(=O)NC23CC4CC(CC(NC(=O)c5ccccn5)(C4)C2)C3)n1",
    "Emax": "63 to 99%"
  },
  {
    "compound": "Cc1cccc(C(=O)NC23CC4CC(C2)CC(NC(=O)c2cn5ccccc5n2)(C4)C3)n1",
    "Emax": "63 to 99%"
  },
  {
    "compound": "Cc1cccc(C(=O)NC23CC4CC(C2)CC(NC(=O)c2cccc(Cl)n2)(C4)C3)n1",
    "Emax": "63 to 99%"
  },
  {
    "compound": "Cc1cccc(C(=O)NC23CC4CC(C2)CC(NC(=O)c2cccc(C(C)(C)O)n2)(C4)C3)n1",
    "Emax": "70 to 99%"
  },
  {
    "compound": "Cc1cccc(C(=O)NC23CC4CC(C2)CC(NC(=O)c2cn5cc(Cl)ccc5n2)(C4)C3)n1",
    "Emax": "63 to 99%"
  },
  {
    "compound": "Cc1ccnc(C(=O)NC23CC4CC(CC(NC(=O)c5cccc(F)c5)(C4)C2)C3)n1",
    "Emax": "63 to 99%"
  },
  {
    "compound": "Cn1ccc2cc(C(=O)NC34CC5CC(C3)CC(NC(=O)c3ccccn3)(C5)C4)ccc21",
    "Emax": "63 to 99%"
  },
  {
    "compound": "Cc1cc(C(=O)NC23CC4CC(CC(NC(=O)c5ccccn5)(C4)C2)C3)nc(C)n1",
    "Emax": "70 to 99%"
  },
  {
    "compound": "O=C(NC12CC3CC(C1)CC(NC(=O)c1cn4ccccc4n1)(C3)C2)c1cccc(F)c1",
    "Emax": "63 to 99%"
  },
  {
    "compound": "Cc1cccc(C(=O)NC23CC4CC(CC(NC(=O)c5ccn6ccnc6c5)(C4)C2)C3)n1",
    "Emax": "63 to 99%"
  },
  {
    "compound": "Cc1cccc(C(=O)NC23CC4CC(CC(NC(=O)c5cnccn5)(C4)C2)C3)n1",
    "Emax": "63 to 99%"
  },
  {
    "compound": "CCOc1cc(C(=O)NC23CC4CC(C2)CC(NC(=O)c2cncc(C)n2)(C4)C3)ccn1",
    "Emax": "70 to 99%"
  },
  {
    "compound": "Cc1cccc(C(=O)NC23CC4CC(CC(NC(=O)c5ccc6ocnc6c5)(C4)C2)C3)n1",
    "Emax": "70 to 99%"
  },
  {
    "compound": "Cc1nc2ccc(C(=O)NC34CC5CC(C3)CC(NC(=O)c3ccccn3)(C5)C4)cc2o1",
    "Emax": "63 to 99%"
  },
  {
    "compound": "Cc1cccc(C(=O)NC23CC4CC(C2)CC(NC(=O)c2cn5c(C)cccc5n2)(C4)C3)n1",
    "Emax": "63 to 99%"
  },
  {
    "compound": "Cn1ccc(C(=O)NC23CC4CC(CC(NC(=O)c5cccc(F)c5)(C4)C2)C3)n1",
    "Emax": "63 to 99%"
  },
  {
    "compound": "COCCCNc1cccc(C(=O)NC23CC4CC(CC(NC(=O)c5ccccn5)(C4)C2)C3)n1",
    "Emax": "63 to 99%"
  }
]

----------
- assayed.system: rat metabotropic glutamate receptor 5 (mGluR5) (Rattus norvegicus, UniProt P31424)
- Construct: expressed in transfected cells; host or cells: HEK 293
- procedure.text: Calcium mobilization assay (FLIPR) for negative or positive allosteric activity, HEK 293 cells
- Type: cell-based
- measurement.parameters: HEK293, negative allosteric modulation, inhibition of EC80 glutamate response; read-out: FLIPR maximum inhibition
Recorded Emax, one value per entry.

[
  {
    "compound": "CC(=O)NCCNc1cccc(C(=O)NC23CC4CC(CC(NC(=O)c5cccc(C)n5)(C4)C2)C3)n1",
    "Emax": "63 to 99%"
  },
  {
    "compound": "O=C(NC12CC3CC(C1)CC(NC(=O)c1ccccn1)(C3)C2)c1ccn2ccnc2c1",
    "Emax": "63 to 99%"
  },
  {
    "compound": "O=C(NC12CC3CC(C1)CC(NC(=O)c1cccs1)(C3)C2)c1cccs1",
    "Emax": "63 to 99%"
  },
  {
    "compound": "NC(=O)CCNc1cccc(C(=O)NC23CC4CC(CC(NC(=O)c5cccc(F)c5)(C4)C2)C3)n1",
    "Emax": "63 to 99%"
  },
  {
    "compound": "Cc1cccc2nc(C(=O)NC34CC5CC(CC(NC(=O)c6ccccn6)(C5)C3)C4)cn12",
    "Emax": "63 to 99%"
  },
  {
    "compound": "CN(C)CCCN(C)c1cccc(C(=O)NC23CC4CC(CC(NC(=O)c5cccc(F)c5)(C4)C2)C3)n1",
    "Emax": "63 to 99%"
  },
  {
    "compound": "O=C(NC12CC3CC(C1)CC(NC(=O)C1CC1(F)F)(C3)C2)c1ccccn1 (stereo not shown)",
    "Emax": "63 to 99%"
  },
  {
    "compound": "O=C(NC12CC3CC(C1)CC(NC(=O)c1ccnc(C(F)(F)F)n1)(C3)C2)c1cnccn1",
    "Emax": "63 to 99%"
  },
  {
    "compound": "Cc1cccc(C(=O)NC23CC4CC(C2)CC(NC(=O)c2ccno2)(C4)C3)n1",
    "Emax": "63 to 99%"
  },
  {
    "compound": "COc1cc(C(=O)NC23CC4CC(C2)CC(NC(=O)c2cncc(C)n2)(C4)C3)ccc1F",
    "Emax": "70 to 99%"
  },
  {
    "compound": "Cc1cncc(C(=O)NC23CC4CC(C2)CC(NC(=O)c2cncc(C)n2)(C4)C3)c1",
    "Emax": "63 to 99%"
  },
  {
    "compound": "COc1cccc(C(=O)NC23CC4CC(C2)CC(NC(=O)c2cccc(C)n2)(C4)C3)c1",
    "Emax": "63 to 99%"
  },
  {
    "compound": "CC(=O)c1cccc(C(=O)NC23CC4CC(CC(NC(=O)c5cccc(C)n5)(C4)C2)C3)n1",
    "Emax": "70 to 99%"
  },
  {
    "compound": "Cc1cncc(C(=O)NC23CC4CC(CC(NC(=O)c5cccc(F)c5)(C4)C2)C3)n1",
    "Emax": "63 to 99%"
  },
  {
    "compound": "Cc1cccc(C(=O)NC23CC4CC(C2)CC(NC(=O)c2cccc(C(C)O)n2)(C4)C3)n1 (stereo not shown)",
    "Emax": "70 to 99%"
  },
  {
    "compound": "O=C(NC12CC3CC(C1)CC(NC(=O)c1cc(F)ccn1)(C3)C2)c1ccccn1",
    "Emax": "70 to 99%"
  }
]
